Tested on: Rattus norvegicus
Experiment: Antiallergic activity in homocytotropic antiovalbumin antiserum-injected Sprague-Dawley rat assessed as inhibition of passive cutaneous anaphylaxis wheal reaction at 100 mg/kg, po administered 1 hr prior to ovalbumin challenge measured 20 mins after antigen challenge
Format: functional
reported-endpoint: inhibition in vivo at 100 mg/kg (%)
Give bare numbers, in %.

Illustrative cases are given below, each with its answer.
structure-as-smiles: CNC(=O)c1ccc2oc3ccc(C(=O)NC)cc3c(=O)c2c1
inhibition in vivo at 100 mg/kg / %: 19

structure-as-smiles: COCCOCCCNC(=O)c1ccc2oc3ccc(C(=O)NCCCOCCOC)cc3c(=O)c2c1
inhibition in vivo at 100 mg/kg / %: 19

Observed inhibition in vivo at 100 mg/kg on Rattus norvegicus, entry `CCOC(=O)c1ccc2oc3ccc(C(=O)OCC)cc3c(=O)c2c1` , equals 8

----------
Tested on: Rattus norvegicus
Assay: Antiallergic activity in homocytotropic antiovalbumin antiserum-injected Sprague-Dawley rat assessed as inhibition of passive cutaneous anaphylaxis wheal reaction at 100 mg/kg, po administered 1 hr prior to ovalbumin challenge measured 20 mins after antigen challenge
Format: functional
Record form. Attribute: inhibition in vivo at 100 mg/kg. Fill in for each entry.
Give bare numbers, in %.

structure-as-smiles: O=C(c1ccc2oc3ccc(C(=O)N4CCCCC4)cc3c(=O)c2c1)N1CCCCC1
measured: 57

I have 4 compounds here; please give me inhibition in vivo at 100 mg/kg for each one.
1. O=C(O)c1ccc2oc3ccc(C(=O)O)cc3c(=O)c2c1
2. CCCNC(=O)c1ccc2oc3ccc(C(=O)NCCC)cc3c(=O)c2c1
3. NC(=O)c1ccc2oc3ccc(C(N)=O)cc3c(=O)c2c1
4. O=C(c1ccc2oc3ccc(C(=O)N(C4CCCCC4)C4CCCCC4)cc3c(=O)c2c1)N(C1CCCCC1)C1CCCCC1

Marked response:
[1, 19, 34, 42]

----------
System: Rattus norvegicus
Experiment: Antiallergic activity in homocytotropic antiovalbumin antiserum-injected Sprague-Dawley rat assessed as inhibition of passive cutaneous anaphylaxis wheal reaction at 100 mg/kg, po administered 1 hr prior to ovalbumin challenge measured 20 mins after antigen challenge
Assay type: functional
reported-endpoint: inhibition in vivo at 100 mg/kg (%)
One number for each entry, in %.

Worked cases, answers included:
structure-as-smiles: CN(C)C(=O)c1ccc2oc3ccc(C(=O)N(C)C)cc3c(=O)c2c1
experimental-system: Rattus norvegicus
measured: 69

structure-as-smiles: O=C(c1ccc2oc3ccc(C(=O)N4CCOCC4)cc3c(=O)c2c1)N1CCOCC1
experimental-system: Rattus norvegicus
measured: 42

Would you be so kind as to report inhibition in vivo at 100 mg/kg for each listed record?
1. C=CCN(CC=C)C(=O)c1ccc2oc3ccc(C(=O)N(CC=C)CC=C)cc3c(=O)c2c1
2. CCN(CC)C(=O)c1ccc2oc3ccc(C(=O)N(CC)CC)cc3c(=O)c2c1
3. O=C(c1ccc2oc3ccc(C(=O)N4CC5CCC(CC5)C4)cc3c(=O)c2c1)N1CC2CCC(CC2)C1

Marked response:
51
53
48
